Provenance of the data: ChEMBL document CHEMBL5291721

Assay read-out AC50; system under study: Melanocortin receptor 4 (Homo sapiens). Further: assay procedure not described here.
Sequence (P32245 whole entry): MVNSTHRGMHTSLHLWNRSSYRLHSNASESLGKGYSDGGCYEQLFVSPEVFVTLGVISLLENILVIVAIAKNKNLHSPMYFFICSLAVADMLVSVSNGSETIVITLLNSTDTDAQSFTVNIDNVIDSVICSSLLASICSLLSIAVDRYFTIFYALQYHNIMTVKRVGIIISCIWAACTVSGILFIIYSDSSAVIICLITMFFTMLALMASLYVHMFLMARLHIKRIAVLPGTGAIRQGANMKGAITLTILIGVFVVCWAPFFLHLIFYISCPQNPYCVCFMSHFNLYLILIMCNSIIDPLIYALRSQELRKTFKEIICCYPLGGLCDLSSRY

Compound	Test Value
CC(C)(Oc1ccc(CCNC(=O)c2ccc(Cl)cc2)cc1)C(=O)O [BEZAFIBRATE]	> 10 µM
COc1cc(C(=O)NS(=O)(=O)c2ccccc2C)ccc1Cc1cn(C)c2ccc(NC(=O)OC3CCCC3)cc12 [ZAFIRLUKAST]	> 10 µM

Next up:
The value of AC50 recorded for CCC1(CCC(C)C)C(=O)NC(=O)NC1=O [AMOBARBITAL] when tested on Melanocortin receptor 4 (Homo sapiens) reads > 10 µM

====

Reported AC50, Muscarinic acetylcholine receptor M2 (Homo sapiens, UniProt P08172).

Completed entries (count: 5):
Compound	AC50
COc1ccc2c(C(=S)N(C)CC(=O)O)cccc2c1C(F)(F)F [TOLRESTAT]	> 30 µM
Cc1ccc(C(=O)C(C)CN2CCCCC2)cc1 (stereo not drawn) [TOLPERISONE]	3.7 µM
CCC[C@H](N[C@@H](C)C(=O)N1[C@H](C(=O)O)C[C@@H]2CCCC[C@@H]21)C(=O)OCC [PERINDOPRIL]	> 30 µM
C[N+](C)(C)CCOC(=O)CCC(=O)OCC[N+](C)(C)C [SUXAMETHONIUM]	> 30 µM
CC(C)C(=O)Oc1ccc(CO)cc1[C@H](CCN(C(C)C)C(C)C)c1ccccc1 [FESOTERODINE]	0.414 µM

Sample O=C1Cc2cc(CCN3CCN(c4nsc5ccccc45)CC3)c(Cl)cc2N1 [ZIPRASIDONE] , system: Muscarinic acetylcholine receptor M2 (Homo sapiens, UniProt P08172). Its AC50 is 7.14 µM

Fill in: Muscarinic acetylcholine receptor M2 (Homo sapiens, UniProt P08172) AC50 for C[C@@H]1C[C@H]2[C@@H]3C[C@H](F)C4=CC(=O)C=C[C@]4(C)[C@H]3[C@@H](O)C[C@]2(C)[C@@]1(O)C(=O)CO [PARAMETHASONE] = > 30 µM

The compound CCCc1nc2c(C)cc(-c3nc4ccccc4n3C)cc2n1Cc1ccc(-c2ccccc2C(=O)O)cc1 , tested on Muscarinic acetylcholine receptor M2 (Homo sapiens, UniProt P08172), showed AC50 of > 30 µM

====

- Assay Target: Voltage-dependent L-type calcium channel subunit alpha-1C (Rattus norvegicus); further: assay procedure not described here
- Sequence (P22002 whole entry): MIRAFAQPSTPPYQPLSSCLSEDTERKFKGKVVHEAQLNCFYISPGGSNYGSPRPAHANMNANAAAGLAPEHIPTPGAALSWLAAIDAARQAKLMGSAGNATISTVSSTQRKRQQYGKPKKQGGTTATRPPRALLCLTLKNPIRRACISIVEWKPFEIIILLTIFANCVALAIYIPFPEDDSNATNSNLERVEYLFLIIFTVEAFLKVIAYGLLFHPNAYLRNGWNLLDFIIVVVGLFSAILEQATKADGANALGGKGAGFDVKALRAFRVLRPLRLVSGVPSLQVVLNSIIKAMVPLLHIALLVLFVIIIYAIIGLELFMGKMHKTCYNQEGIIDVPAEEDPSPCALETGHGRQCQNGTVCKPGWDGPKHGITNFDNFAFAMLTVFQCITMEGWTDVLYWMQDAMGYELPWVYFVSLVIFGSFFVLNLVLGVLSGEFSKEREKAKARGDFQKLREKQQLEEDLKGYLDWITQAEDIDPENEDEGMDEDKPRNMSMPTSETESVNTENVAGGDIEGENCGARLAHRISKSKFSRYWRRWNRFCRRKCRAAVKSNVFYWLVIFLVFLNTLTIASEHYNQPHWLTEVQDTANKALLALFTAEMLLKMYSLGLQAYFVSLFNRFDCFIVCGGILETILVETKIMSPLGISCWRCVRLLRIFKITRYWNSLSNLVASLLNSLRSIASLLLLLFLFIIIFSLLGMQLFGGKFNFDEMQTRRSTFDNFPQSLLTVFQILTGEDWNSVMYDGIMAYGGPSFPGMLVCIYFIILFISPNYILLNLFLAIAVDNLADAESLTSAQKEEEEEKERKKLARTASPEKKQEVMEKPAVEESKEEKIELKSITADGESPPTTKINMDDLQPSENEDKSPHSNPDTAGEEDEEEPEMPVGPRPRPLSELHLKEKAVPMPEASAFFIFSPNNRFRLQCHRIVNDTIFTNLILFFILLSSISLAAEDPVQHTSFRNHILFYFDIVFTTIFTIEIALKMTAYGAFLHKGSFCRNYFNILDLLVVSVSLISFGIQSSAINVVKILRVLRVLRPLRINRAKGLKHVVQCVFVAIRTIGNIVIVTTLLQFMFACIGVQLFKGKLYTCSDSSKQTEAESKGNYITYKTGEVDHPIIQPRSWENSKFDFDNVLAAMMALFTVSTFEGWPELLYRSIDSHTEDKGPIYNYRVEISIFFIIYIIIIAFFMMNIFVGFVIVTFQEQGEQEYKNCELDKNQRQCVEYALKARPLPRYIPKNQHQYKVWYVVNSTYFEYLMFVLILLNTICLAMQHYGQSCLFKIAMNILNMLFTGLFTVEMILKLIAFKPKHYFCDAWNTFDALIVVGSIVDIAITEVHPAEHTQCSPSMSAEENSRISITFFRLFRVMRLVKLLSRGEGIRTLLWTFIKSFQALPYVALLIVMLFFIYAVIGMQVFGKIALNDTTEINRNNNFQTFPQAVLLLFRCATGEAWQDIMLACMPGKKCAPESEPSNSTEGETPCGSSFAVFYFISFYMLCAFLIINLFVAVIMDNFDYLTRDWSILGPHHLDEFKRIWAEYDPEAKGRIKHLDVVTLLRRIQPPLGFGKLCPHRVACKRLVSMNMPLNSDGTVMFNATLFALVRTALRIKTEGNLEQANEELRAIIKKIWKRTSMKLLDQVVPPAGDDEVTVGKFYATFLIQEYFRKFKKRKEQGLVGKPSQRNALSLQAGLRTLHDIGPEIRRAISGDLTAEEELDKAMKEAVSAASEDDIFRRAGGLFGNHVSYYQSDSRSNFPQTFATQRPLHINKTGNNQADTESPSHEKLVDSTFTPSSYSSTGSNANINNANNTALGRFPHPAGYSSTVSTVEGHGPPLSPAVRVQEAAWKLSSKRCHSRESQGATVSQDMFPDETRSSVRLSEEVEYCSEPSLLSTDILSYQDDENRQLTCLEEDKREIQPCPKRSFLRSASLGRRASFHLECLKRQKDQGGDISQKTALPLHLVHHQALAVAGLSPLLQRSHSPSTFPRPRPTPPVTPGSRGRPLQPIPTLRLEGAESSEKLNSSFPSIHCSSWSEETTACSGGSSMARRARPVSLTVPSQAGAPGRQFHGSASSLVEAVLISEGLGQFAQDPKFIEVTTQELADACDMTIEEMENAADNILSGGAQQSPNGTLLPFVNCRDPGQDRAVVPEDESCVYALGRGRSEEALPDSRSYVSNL
- Format: functional
Here, each record is paired with measured AC50 data.

Some compounds with recorded AC50:
Compound	Test Value
C/C=C(/C(=C/C)c1ccc(O)cc1)c1ccc(O)cc1 [DIENESTROL]	> 10 µM
COC(=O)[C@H]1[C@H]2C[C@@H]3c4[nH]c5cc(OC)ccc5c4CCN3C[C@H]2C[C@@H](OC(=O)c2cc(OC)c(OC)c(OC)c2)[C@@H]1OC [RESERPINE]	8.83 µM
CCOc1nc2cccc(C(=O)O)c2n1Cc1ccc(-c2ccccc2-c2nnn[nH]2)cc1	> 10 µM

Now turn to the next compound.
Looking up COc1cc(C(=O)NS(=O)(=O)c2ccccc2C)ccc1Cc1cn(C)c2ccc(NC(=O)OC3CCCC3)cc12 [ZAFIRLUKAST] , I see its AC50 listed as > 10 µM

====

Each entry below carries its reported AC50.
- Assay Target: Cholecystokinin receptor type A (Homo sapiens); further: assay procedure not described here
- Sequence (P32238 whole entry): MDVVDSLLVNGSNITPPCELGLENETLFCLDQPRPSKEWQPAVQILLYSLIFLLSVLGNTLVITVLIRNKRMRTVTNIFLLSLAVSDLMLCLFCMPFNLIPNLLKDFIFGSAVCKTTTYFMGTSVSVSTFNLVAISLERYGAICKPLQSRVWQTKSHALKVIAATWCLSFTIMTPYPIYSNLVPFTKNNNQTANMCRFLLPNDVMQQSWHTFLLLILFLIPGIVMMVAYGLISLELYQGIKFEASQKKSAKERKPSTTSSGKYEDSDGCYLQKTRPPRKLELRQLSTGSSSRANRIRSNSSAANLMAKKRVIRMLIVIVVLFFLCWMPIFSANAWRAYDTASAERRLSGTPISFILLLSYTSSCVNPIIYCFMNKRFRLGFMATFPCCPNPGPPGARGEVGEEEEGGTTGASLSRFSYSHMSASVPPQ

Sample records with AC50:
Compound	AC50
O=C(O)c1ccc(NC(=O)[C@H](Cc2ccc(O)cc2)NC(=O)c2ccccc2)cc1 [BENTIROMIDE]	> 10 µM
CCOC(=O)c1ccc(C#Cc2ccc3c(c2)C(C)(C)CCS3)nc1	> 30 µM
COc1ccccc1OC1(C)OC(=O)c2ccccc2O1 (centres undefined)	> 30 µM
Oc1cc(O)c(Cl)cn1	> 30 µM
C[N+]1(C)CCC(=C(c2ccccc2)c2ccccc2)CC1	> 30 µM
Clc1ccc(CCC(Cn2ccnc2)Sc2c(Cl)cccc2Cl)cc1 (centres undefined)	> 30 µM
CCC[C@@H]1C[C@@H](C(=O)N[C@@H]([C@H]2O[C@H](SC)[C@H](O)[C@@H](O)[C@H]2O)[C@@H](C)O)N(C)C1	> 10 µM
COc1cc2[nH]c(C)c(CCN3CCN(c4ccccc4)CC3)c2cc1OC	> 30 µM

Continue with the next compound.
Entry CN(C)CCCN1c2ccccc2CCc2ccccc21 under Cholecystokinin receptor type A (Homo sapiens) had AC50 of > 30 µM
